test protocol: P-glycoprotein substrates identified in KB-8-5-11 adenocarcinoma cell line, qHTS therapeutic library screen (AID 1346987); note: nearly all actives have a fitted effect of over 65% in size
particulars: KB-8-5-11 (P-gp overexpressing) viability, CellTiter-Glo, 72 h; series mostly up to 44.5 µM
Results filed as inconclusive are left out. Calls of active or inactive are those of the source. Calls come from the whole dose curve; as a rule, active = well fitted inhibition curve with a large enough effect; inconclusive = small, poorly fitted or top-dose-only effect; inactive = flat fitted curve, though single readings scatter.
Outcome codes: active, inactive

[
  {
    "compound": "CC(C)CCC[C@@H](C)[C@H]1CC[C@H]2[C@@H]3CC(=O)[C@H]4C[C@@H](O)CC[C@]4(C)[C@H]3CC[C@]12C",
    "class": "inactive"
  },
  {
    "compound": "CC1=CC(=O)[C@]2(O[C@@H]3O[C@@H](C)[C@H](O)[C@@H](O)[C@H]3OC(=O)/C=C/c3ccccc3)C=CO[C@@H](O[C@@H]3O[C@H](CO)[C@@H](O)[C@H](O)[C@H]3O)[C@H]12",
    "class": "inactive"
  },
  {
    "compound": "CN(C)CCCCC(=O)Nc1ccc(NC(=S)NC(=O)c2ccc(C(C)(C)C)cc2)cc1",
    "class": "active"
  },
  {
    "compound": "C=C1CC2C(C)(CCC(=O)O)C(C(C)(C)O)CCC2(C)C2C(=O)OC(C)(C(=O)OC)C(=O)C12C (stereo not given)",
    "class": "inactive"
  },
  {
    "compound": "O=C(O)C(O[C@@H]1O[C@H](CO[C@@H]2O[C@H](CO)[C@@H](O)[C@H](O)[C@H]2O)[C@@H](O)[C@H](O)[C@H]1O)c1ccccc1 (stereo not given in full)",
    "class": "inactive"
  },
  {
    "compound": "CCCCNc1ncc2c(-c3ccc(CN4CCN(C)CC4)cc3)cn(C3CCC(O)CC3)c2n1 (stereo not given)",
    "class": "active"
  },
  {
    "compound": "CCOCCn1nc(CC)c2nc(N3CCC(C(=O)O)CC3)nc(Nc3cc(C)ccn3)c21",
    "class": "inactive"
  },
  {
    "compound": "COC(=O)C1=COC(O[C@@H]2O[C@H](CO)[C@@H](O)[C@H](O)[C@H]2O)[C@H]2[C@@H]1[C@H](OC(=O)CCc1ccc(O)cc1)C[C@]2(C)O (stereo not given in full)",
    "class": "inactive"
  },
  {
    "compound": "CC(Oc1cc(-n2cnc3ccc(CN4CCN(C)CC4)cc32)sc1C(N)=O)c1ccccc1C(F)(F)F (stereo not given)",
    "class": "active"
  },
  {
    "compound": "CC(C)(C(=O)NCC(F)(F)C(F)(F)F)C(=O)NC1C(=O)Nc2ccccc2-c2ccccc21 (stereo not given)",
    "class": "active"
  },
  {
    "compound": "C/C=C(\\C)C(=O)O[C@H]1[C@@H](O[C@]2(COC(=O)CC(C)C)O[C@H](COC(=O)C(C)CC)[C@@H](OC(C)=O)[C@@H]2O)O[C@H](COC(C)=O)[C@@H](O)[C@@H]1O (stereo not given in full)",
    "class": "inactive"
  },
  {
    "compound": "C=C1C(=O)O[C@@H]2C/C(C)=C\\C(=O)/C=C(\\C)[C@@H](OC(=O)/C(C)=C\\C)[C@H](O)[C@@H]12",
    "class": "active"
  },
  {
    "compound": "COc1ccc(-c2ccc3c(N4CCOCC4)nc(N4CC(C)OC(C)C4)nc3n2)cc1CO (stereo not given)",
    "class": "active"
  },
  {
    "compound": "C[C@]12C=C[C@@]3(CCC4[C@](C)(CO)CCC[C@@]4(C)C3CC1)C2 (stereo not given in full)",
    "class": "inactive"
  },
  {
    "compound": "CCc1c(C)nc2c(-c3cnn(-c4cc(CO)ccn4)c3)c[nH]n2c1=O",
    "class": "inactive"
  }
]
